Tested on: Triple negative breast cancer cell line CAL51
METHOD_DESCRIPTION: Cell Titer Glo proliferation assay, CAL51
Format: cell-based
EXPERIMENTAL_SETUP: Homo sapiens, CAL-51; CAL51 cell proliferation (Table 1); read-out: Act. Level
pIC50: −log10 of the molar value.
MEASURE: pIC50

Known results for molecules:
CNC(=O)c1ccc(Nc2nc(OC(C)C)c3c(-c4ccc5nc(C)oc5c4)c[nH]c3n2)c(Cl)c1
> 7.00
COc1nc(Nc2ccc(C(=O)N(C)C)cc2C)nc2[nH]cc(-c3ccc4c(c3)nc(C)n4C)c12
5.00 to 6.00
CNC(=O)c1ccc(-c2c[nH]c3nc(Nc4ccc(C(=O)NC)cc4Cl)nc(OC4CCOCC4)c23)cc1
> 7.00
COc1nc(Nc2ccc(C(=O)N(C)C)cc2C)nc2[nH]cc(-c3ccc(S(C)(=O)=O)cc3)c12
5.00 to 6.00
COc1nc(Nc2ccc(C(=O)N(C)C)cc2C)nc2[nH]cc(-c3ccc4c(C)noc4c3)c12
> 7.00
CNC(=O)c1ccc(-c2c[nH]c3nc(Nc4ccc(C(=O)NC)cc4Cl)nc(OC4CCCC4)c23)cc1
> 7.00
COc1cc(C(=O)NC2COC2)ccc1Nc1nc(OC)c2c(-c3ccnnc3)c[nH]c2n1
6.00 to 6.40

Let's switch to this molecule now.
In: If you can, please state the reported pIC50 value of COc1cc(C(=O)NC2COC2)ccc1Nc1nc(OC)c2c(-c3cn(C)nc3Cl)c[nH]c2n1 .
Out: 5.00 to 6.00
